Origin of measurements: PubChem BioAssay (NCI)

tested on: NCI-H23 lung; assay: NCI tumour cell line growth inhibition, 48 h
measured_endpoint: GI50

molecular_string	measured_endpoint	measurement
C=C1C(=O)O[C@H]2[C@H]1CC/C(COC(=O)c1cc(OC)c(OC)c(OC)c1)=C\CC[C@@]1(C)O[C@@H]21	GI50	1700 nM
NC(N)=N/N=C/c1c(-c2ccsc2)nc2n1CCS2	GI50	23800 nM
O=C1NC(=NCCc2ccc(F)cc2)S/C1=C\c1ccc2ncccc2c1	GI50	> 25000 nM
CO[C@H]1C[C@@H]2CC[C@@H](C)[C@@](O)(O2)C(=O)C(=O)N2CCCC[C@H]2C(=O)O[C@H]([C@H](C)C[C@@H]2CC[C@@H](OC(=O)C(C)(CO)CO)[C@H](OC)C2)CC(=O)[C@H](C)/C=C(\C)[C@@H](O)[C@@H](OC)C(=O)[C@H](C)C[C@H](C)\C=C/C=C/C=C/1C	GI50	86.6 nM
CCCCCC(=O)N[C@@H](c1ccco1)[C@@H](O)C(=O)O[C@H]1C[C@@]2(O)[C@@H](OC(=O)c3ccccc3)[C@@H]3[C@]4(OC(C)=O)CO[C@@H]4C[C@H](O)[C@@]3(C)C(=O)[C@H](OC(C)=O)C(=C1C)C2(C)C	GI50	0.239 nM
COc1ccc2nc3cc(Cl)ccc3c(NCCCNCCO)c2c1	GI50	499 nM
